The reported measurements were obtained from patent US12692254B2.

biological target: human PAD4 (hPAD4) (Homo sapiens, UniProt Q9UM07); experiment: RFMS human PAD4 functional assay (rapid-fire mass spectrum); conditions: 5 nM hPAD4 enzyme, 250 μM BAEE, 50 μM Calcium; 30 min preincubation, 90 min reaction at 37° C.
Sequence (Q9UM07 whole entry): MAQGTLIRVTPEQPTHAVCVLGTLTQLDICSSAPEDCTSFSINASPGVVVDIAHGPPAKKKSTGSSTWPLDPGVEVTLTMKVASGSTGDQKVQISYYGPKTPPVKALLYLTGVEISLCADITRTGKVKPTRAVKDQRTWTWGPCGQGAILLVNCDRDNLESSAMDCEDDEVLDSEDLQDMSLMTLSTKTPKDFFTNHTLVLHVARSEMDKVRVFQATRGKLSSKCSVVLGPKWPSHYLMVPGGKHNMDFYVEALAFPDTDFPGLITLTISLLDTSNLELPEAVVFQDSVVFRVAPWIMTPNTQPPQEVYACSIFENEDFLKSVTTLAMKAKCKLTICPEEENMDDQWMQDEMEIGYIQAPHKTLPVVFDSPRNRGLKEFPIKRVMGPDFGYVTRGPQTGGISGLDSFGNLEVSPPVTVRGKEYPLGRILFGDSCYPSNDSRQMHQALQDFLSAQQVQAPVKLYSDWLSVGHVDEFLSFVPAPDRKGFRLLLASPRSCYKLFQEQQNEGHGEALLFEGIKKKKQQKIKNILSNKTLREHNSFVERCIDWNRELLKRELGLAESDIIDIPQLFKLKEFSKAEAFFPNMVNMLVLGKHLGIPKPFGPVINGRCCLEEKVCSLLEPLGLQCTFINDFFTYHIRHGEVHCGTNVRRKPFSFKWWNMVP
readout_kind: IC50 (nM)

Example molecules with recorded IC50:
>>> readout_value("COc1cc(C(=O)N2CC3CCC2[C@@H]3N)cc2nc(-c3cc4ccccc4n3CC3CC3)n(CC3CCS(=O)(=O)C3)c12 (stereo partly shown) [Example 264]")
57
>>> readout_value("COc1cc(C(=O)N2CC3CCC2[C@@H]3N)cc2nc(-c3cc4cccnc4n3CC3CC3)n(Cc3cnn(-c4cncc(C#N)c4)c3)c12 (stereo partly shown)")
61
>>> readout_value("COc1cc(C(=O)N2CCC[C@@H](N)C2)cc2nc(-c3cc4cccnc4n3CC3CC3)n([C@H]3C[C@H](N)C3)c12")
912
>>> readout_value("COc1cc(C(=O)N2C[C@H]3CC[C@@H]2[C@@H]3N)cc2nc(-c3cc4cccnc4n3CC3CC3)n(C[C@H]3CCN(c4ccnc(C)n4)C3)c12")
25
>>> readout_value("COc1cc(C(=O)N2C[C@H]3CC[C@@H]2[C@@H]3N)cc2nc(-c3cc4cccnc4n3CC3CC3)n(C3CN(c4cncc(C#N)n4)C3)c12")
58

I: COc1ncc(-n2cc(Cn3c(-c4cc5ccccc5n4CC4CC4)nc4cc(C(=O)N5CC6CCC5[C@@H]6N)cc(OC)c43)cn2)cc1F (stereo partly shown)
II: COc1cc(C(=O)N2CC3CCC2[C@@H]3N)cc2nc(-c3cc4cccnc4n3CC3CC3)n(CC3CN(C(=O)c4ccccc4F)C3)c12 (stereo partly shown)
From the recorded data, which exceeds the other in IC50: I or II ? Please reply using the label of the selected record.
I
